Where these numbers come from: ChEMBL document CHEMBL4673263

test system: MES-SA/Dx5; assay: Cytotoxicity against human MES SA/DX5 cells assessed as reduction in cell viability; type: functional, cell-based
Simple rule here: EC50 less than 10 pM is 1 (yes), otherwise 0 (no).

{"Smiles": "COc1cccc2c1C(=O)c1c(O)c3c(c(O)c1C2=O)C[C@@]1(C[C@@H]3O[C@H]2C[C@H]3[C@H](O[C@@H]4[C@@H](OC)OCCN43)[C@H](C)O2)OC(=O)OCC1=O", "Group Label": "1 (yes)"}
{"Smiles": "COc1cccc2c1C(=O)c1c(O)c3c(c(O)c1C2=O)C[C@@](O)(c1cnc(C)[nH]1)C[C@@H]3O[C@H]1C[C@H]2[C@H](O[C@@H]3[C@@H](OC)OCCN32)[C@H](C)O1", "Group Label": "0 (no)"}
{"Smiles": "COc1cccc2c1C(=O)c1c(O)c3c(c(O)c1C2=O)C[C@@](O)(c1nnc(C)[nH]1)C[C@@H]3O[C@H]1C[C@H]2[C@H](O[C@@H]3[C@@H](OC)OCCN32)[C@H](C)O1", "Group Label": "0 (no)"}
{"Smiles": "COc1cccc2c1C(=O)c1c(O)c3c(c(O)c1C2=O)C[C@@](O)(c1csc(N(C)C)n1)C[C@@H]3O[C@H]1C[C@H]2[C@H](O[C@@H]3[C@@H](OC)OCCN32)[C@H](C)O1", "Group Label": "0 (no)"}
{"Smiles": "COc1cccc2c1C(=O)c1c(O)c3c(c(O)c1C2=O)C[C@@](O)(c1csc(N)n1)C[C@@H]3O[C@H]1C[C@H]2[C@H](O[C@@H]3[C@@H](OC)OCCN32)[C@H](C)O1", "Group Label": "0 (no)"}
{"Smiles": "CNc1nc([C@]2(O)Cc3c(O)c4c(c(O)c3[C@@H](O[C@H]3C[C@H]5[C@H](O[C@@H]6[C@@H](OC)OCCN65)[C@H](C)O3)C2)C(=O)c2c(OC)cccc2C4=O)cs1", "Group Label": "0 (no)"}
{"Smiles": "COc1cccc2c1C(=O)c1c(O)c3c(c(O)c1C2=O)C[C@@](O)(C(=O)CO)C[C@@H]3O[C@H]1C[C@H]2[C@H](O[C@@H]3[C@@H](OC)OCCN32)[C@H](C)O1", "Group Label": "1 (yes)"}
